Listed here are compounds together with their documented % Inhibition @ 10 uM.
Target: DPAP1 (Plasmodium falciparum, UniProt Q8IIJ9)
Sequence (Q8IIJ9 whole entry, looked up): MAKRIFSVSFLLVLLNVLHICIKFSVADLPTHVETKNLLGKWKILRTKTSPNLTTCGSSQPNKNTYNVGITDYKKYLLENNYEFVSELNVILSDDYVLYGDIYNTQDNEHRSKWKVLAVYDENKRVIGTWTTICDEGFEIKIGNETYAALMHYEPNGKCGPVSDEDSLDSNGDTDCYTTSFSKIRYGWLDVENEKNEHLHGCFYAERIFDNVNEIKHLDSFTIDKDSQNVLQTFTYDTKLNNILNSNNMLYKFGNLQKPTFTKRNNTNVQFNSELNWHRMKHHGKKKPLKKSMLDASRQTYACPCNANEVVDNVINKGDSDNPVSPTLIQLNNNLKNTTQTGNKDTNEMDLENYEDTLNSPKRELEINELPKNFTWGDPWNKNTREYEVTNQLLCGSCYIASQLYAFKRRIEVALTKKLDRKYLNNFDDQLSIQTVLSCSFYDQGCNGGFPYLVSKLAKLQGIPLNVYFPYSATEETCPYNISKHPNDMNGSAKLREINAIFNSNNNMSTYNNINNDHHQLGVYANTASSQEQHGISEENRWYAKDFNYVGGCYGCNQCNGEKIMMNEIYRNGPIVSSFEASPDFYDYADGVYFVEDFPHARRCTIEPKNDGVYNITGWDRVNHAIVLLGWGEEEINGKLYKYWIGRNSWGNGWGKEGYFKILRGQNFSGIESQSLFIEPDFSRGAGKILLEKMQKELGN
Experiment: primary screen, percent inhibition; higher = more effect of the substance;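 also: 30 min substrate incubation versus DMSO and 10 µM JCP410 controls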
Design: species or system P. falciparum D10 trophozoite lysates; single well
The whole screen tested about 110,000 compounds, of which about 230 (0.21%) showed an effect of 50% or more. The entries come from a sample that favours strong results as a whole.
Supply the numeric figure in %, leaving out any unit text.

Study these solved cases before continuing.
compound: COCCNc1nc2c(S(=O)(=O)c3ccccc3)nnn2c2ccsc12
quantity: % Inhibition @ 10 uM
measured-number: -0.256

compound: Cc1ccc(-c2csc(C3C(N)=NC(S)=C(C#N)C34CCCCC4)n2)cc1 (stereo not shown)
quantity: % Inhibition @ 10 uM
measured-number: 89.8

compound: CCN(C(=O)CCc1ccccc1)c1nc(-c2ccccc2)cs1
quantity: % Inhibition @ 10 uM
measured-number: -0.426

For CCN(C(=O)c1ccco1)c1nc(-c2ccccc2)cs1 , what is its reported % Inhibition @ 10 uM?
72.9

How about this compound: Sc1nnc2[nH]c3ccccc3c2n1
56.9

Repeat with CP(=O)(O)c1nc2ccccc2s1
-2.44

Do the same for COc1ccc(-c2noc(CCC(=O)NCc3ccc(F)cc3Cl)n2)cc1 please
60.3

----------
Entries and their % Inhibition @ 10 uM
Target: DPAP1 (Plasmodium falciparum)
Assay: primary screen, percent inhibition; higher = more effect of the substance
Set-up: species or system P. falciparum D10 trophozoite lysates; single well
Hit rate of the full screen: of about 110,000 compounds, about 230 (0.21%) showed an effect of 50% or more. The list comes from a sample in which strong results are over-represented; it also holds close analogues and randomly drawn compounds.
Give the number; % is assumed, so skip it.

Some entries whose results are on file:
compound: CCC(=O)/N=c1/n(C)c2ccccc2n1CCOc1ccccc1
scale-unit: %
% Inhibition @ 10 uM: 0.512
//
compound: COc1cc(/C=C2\N=C(c3cc(OC)c(OC)c(OC)c3)OC2=O)cc(OC)c1OC
scale-unit: %
% Inhibition @ 10 uM: 0.607
//
compound: Cc1cccc(Cc2c(C)nc3c(C(=O)NCCc4ccccc4)cnn3c2C)c1
scale-unit: %
% Inhibition @ 10 uM: -16.3
//
compound: Cc1nnc2c(NCc3ccco3)nc3ccc(C(=O)c4ccccc4)cc3n12
scale-unit: %
% Inhibition @ 10 uM: -6.09
//
compound: CCC1CCc2c(sc(N)c2C#N)C1 (centres unmarked)
scale-unit: %
% Inhibition @ 10 uM: 11.8
//
compound: O=c1c2c3c(sc2[nH]c(=S)n1-c1ccccc1)CN(Cc1ccccc1)CC3
scale-unit: %
% Inhibition @ 10 uM: 57.7
//
compound: CC(C)C[C@H](NC(=O)c1cc2cc(OCCN3CCOCC3)ccc2o1)C(=O)NC1COCC1=O (some centres unmarked)
scale-unit: %
% Inhibition @ 10 uM: -8.26
//
compound: Cc1ccc(S(=O)(=O)NC(CC(=O)O)c2cccs2)cc1 (centres unmarked)
scale-unit: %
% Inhibition @ 10 uM: 3.64
//
compound: Cc1cccc(N2C(=O)C3C4c5ccccc5C(C)(c5ccccc54)C3C2=O)c1 (centres unmarked)
scale-unit: %
% Inhibition @ 10 uM: 2.6
//
compound: COc1ccccc1Oc1ccc(S(=O)(=O)Nc2cccc(C(C)=O)c2)cc1
scale-unit: %
% Inhibition @ 10 uM: 67.2

Can you share its % Inhibition @ 10 uM? I mean this compound: Cc1ccc(-c2cc(C(=O)N3CCN(C(=O)c4ccco4)CC3)[nH]n2)c(C)c1
2.62

Same question for CC(C)CNCC(=O)Nc1sc2c(c1C(=O)Nc1ccc(Br)cc1)CCC2 please.
-6.07

----------
Quick list: % Inhibition @ 10 uM per entry.
Biological target: DPAP1 (Plasmodium falciparum, UniProt Q8IIJ9)
Assay: primary screen, percent inhibition; higher = more effect of the substance;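 also: 30 min substrate incubation versus DMSO and 10 µM JCP410 controls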
Parameters: species or system P. falciparum D10 trophozoite lysates; single well
In all, about 110,000 compounds went through this assay and about 230 (0.21%) showed an effect of 50% or more. What follows is part of a selection rich in strong results, with near analogues and random picks from the rest.
Report only the number, with the unit % understood.

Example entries and their recorded answers appear below.
compound: Cc1ccc(-n2c(=S)[nH]c3sc4c(c3c2=O)CCCCC4)cc1
% Inhibition @ 10 uM / %: 11.5
//
compound: COc1ccc(C2CC(=O)N3CN(Cc4cccnc4)CSC3=C2C#N)cc1 (centres unmarked)
% Inhibition @ 10 uM / %: 46.3
//
compound: CC(C)(C)C1CCC(OC(=O)CCC(=O)Nc2ccccc2)CC1 (centres unmarked)
% Inhibition @ 10 uM / %: 3.16
//
compound: O=C(O)c1cc(C(=O)O)cc(N2C(=O)c3ccc([N+](=O)[O-])cc3C2=O)c1
% Inhibition @ 10 uM / %: 1.64
//
compound: COc1ccc(NC(=O)C2=C(C)NC(=O)NC2c2ccc(C)cc2)cc1 (centres unmarked)
% Inhibition @ 10 uM / %: -2.18
//
compound: Cc1ccc(-c2nc3c4ccccc4nc(S)n3n2)cc1
% Inhibition @ 10 uM / %: -7.62
//
compound: Cc1nc2c3ccccc3n3c(CCCC(=O)O)nnc3n2n1
% Inhibition @ 10 uM / %: -2.92
//
compound: CC(Sc1nc(-c2ccccc2)c(-c2ccccc2)[nH]1)C(=O)O (centres unmarked)
% Inhibition @ 10 uM / %: -3.04

Recorded % Inhibition @ 10 uM for CC1=C(C(=O)Nc2ccc(Br)cc2)C(c2ccc(Cl)cc2)NC(=O)N1 (centres unmarked) , please?
1.35

CC(=O)Nc1ccc(Nc2nc(-c3c(C)nc4cc(C)ccn34)cs2)cc1 , same question.
25.6

Same question, COc1ccc(C2=N/C(=C\c3cccc(C(F)(F)F)c3)C(=O)O2)cc1OC this time
6.11

Do the same for CCOC(=O)N1CCN(C(=O)Cc2c(C(=O)O)n(C)c3ccccc23)CC1 please
2.84

Same thing, different compound: CCc1ccc(C2CC(=O)N3CN(Cc4ccccc4)CSC3=C2C#N)cc1 (centres unmarked)
39.2

Please do the same for CC(=O)N1CCN(C2CCc3ccccc3C2)CC1 (centres unmarked) as well.
0.217

Try this compound next: Cc1nc(NC(=O)c2ccccc2Cl)ccc1Br
-2.67

// repeat for Cc1ccc(NC(=O)C(CC(C)C)N2Cc3ccccc3C2=O)nc1 (centres unmarked) and report
-0.234

Next compound up: CCCN1CCN(C(=O)Cn2cccc2C(=O)c2ccccc2)CC1
1.15

Let us now turn to Cn1cc(CCC(=O)NCc2ccccn2)c2ccccc21
3.28

Param item: CCOc1ccc(N2C(=O)C3C(C(C)=O)=NN(c4ccccc4Cl)C3C2=O)cc1 (centres unmarked)
-0.0619

Please do the same for O=C1c2cccnc2C(=O)N1Cc1ccc(S(=O)(=O)NCCc2ccc(Cl)cc2)s1 as well.
-3.66

----------
Biological target: DPAP1 (Plasmodium falciparum, UniProt Q8IIJ9)
Experiment: primary screen, percent inhibition; read by cleavage of a fluorogenic dipeptide substrate; higher = more effect of the substance
Set-up: species or system P. falciparum D10 trophozoite lysates; single well
Screen size: about 110,000 compounds; about 230 (0.21%) showed an effect of 50% or more. Shown is part of a subset that was picked to be rich in strong results.
Listing of entries alongside the reported % Inhibition @ 10 uM.
Numbers only here, please. The scale is %.

compound: N#CC1=C2SCN(Cc3ccccc3)CN2C(=O)CC1c1cccs1 (stereo not drawn)
target-or-system: DPAP1 (Plasmodium falciparum, UniProt Q8IIJ9)
measured-number: 40.5

compound: CC1=CC2=NC(=O)/C(=C\c3ccc(-c4ccccc4Cl)o3)C(=N)N2O1
target-or-system: DPAP1 (Plasmodium falciparum, UniProt Q8IIJ9)
measured-number: -1.65

compound: COc1ccc2ccccc2c1C1CC(=O)N2CN(Cc3ccccc3)CSC2=C1C#N (stereo not drawn)
target-or-system: DPAP1 (Plasmodium falciparum, UniProt Q8IIJ9)
measured-number: 35.8

compound: CCn1c(=S)[nH]c2sc3c(c2c1=O)CCC3
target-or-system: DPAP1 (Plasmodium falciparum, UniProt Q8IIJ9)
measured-number: 64.7

compound: CCn1c(=S)[nH]c2sc3c(c2c1=O)CCCC3
target-or-system: DPAP1 (Plasmodium falciparum, UniProt Q8IIJ9)
measured-number: 42.2

Requested field: % Inhibition @ 10 uM. Item: COc1ccc(OC)c(CCNC(=O)c2noc3c2COc2ccccc2-3)c1
59.5

Another compound to look at: COc1ccc(Br)cc1C1CC(=O)N2CN(Cc3ccccc3)CSC2=C1C#N (stereo not drawn)
60.8

Same again, this time with COc1ccc(OC)c(C2CC(=O)N3CN(Cc4ccco4)CSC3=C2C#N)c1 (stereo not drawn)
6.87

# iterate: COc1cc(C2CC(=O)N3CN(Cc4ccccc4)CSC3=C2C#N)cc(Br)c1O (stereo not drawn)
57

// repeat for Cc1nc2scc(C)n2c(=O)c1S(=O)(=O)NC1CCCCCCC1 and report
72.2
